# experimental.target: M-phase inducer phosphatase 2 (Homo sapiens) + Cyclin-dependent kinase 2 (Homo sapiens) + Cyclin-A2 (Homo sapiens) (UniProt P30305+P24941+P20248)
# test.details: primary biochemical HTRF screen for inhibition of M-phase inducer phosphatase 2 binding to cyclin-dependent kinase 2/cyclin A (AID 1259370)
# condition.notes: HTRF CDC25B-CDK2/CyclinA binding, anti-His/anti-Flag
Among all 94,000 compounds or so, about 680 (0.72%) were called active. No stated cut-off is given here; in the data, active means z-score above about 3.2; inactive means the rest. The sample as a whole holds a higher share of actives than the screen did.
Respond only with the outcome that fits, drawn from YES for active, NO for inactive

Worked set:
CCOC(=O)Cc1nnc2c(Nc3cccc(Br)c3)nc3nonc3n12 = NO
Cc1ccc(CC2CC(=O)N(c3nc(C)cc(C)n3)C2=O)cc1 (stereo not given) = NO
CC1CCCC(NC(=O)c2cc3c(s2)-c2ccccc2OC3)C1C (stereo not given) = NO
CC1=C(C(N)=O)C(c2cccc(O)c2)n2nc(SCc3ccccc3F)nc2N1 (stereo not given) = NO
Cn1c(=O)c2c(-c3cccc(Br)c3)n(C(CO)(CO)CO)cc2n(C)c1=O = NO

Any idea what this test logged for Cc1n[nH]c(=O)c2nn(-c3ccccc3)c(C)c12 ? NO

Outcome logged for COc1ccccc1N1C(=O)C2C(c3ccccc3C)OC3(C(=O)c4ccccc4C3=O)C2C1=O (stereo not given) in this assay: NO

Given Cc1cccn2c(=O)c3cc(C(=O)NCc4cccs4)n(C)c3nc12 , state the outcome it received in this test. NO

// return assay outcome for C=CCOc1cccc(C2c3c(oc4ccc(Cl)cc4c3=O)C(=O)N2CCCN2CCOCC2)c1 (stereo not given) NO

Tell me the assay call for Cc1ccc(C)c(C(=O)CSc2n[nH]c(-c3ccco3)n2)c1 please. YES
